# Tested on: endogenous TFE3
# protocol.description: TFE3 nuclear translocation, immunocytochemistry high-content imaging
# Assay type: cell-based
# measurement.context: PKIS2 primary screening
Give measured TFE3 % for each item. Keep answers brief.
Please respond with the number in % and leave the unit unwritten.

Query string: // TFE3 % lookup, key: Cc1cccc(-c2nc(Nc3ccncc3)c3ccccc3n2)n1 [GW855857]
Result string: 15.51

Query string: // TFE3 % lookup, key: c1ccc(-c2ccnc3[nH]ccc23)cc1 [UNC10225337A]
Result string: 8.32

Query string: // TFE3 % lookup, key: Fc1cc(Cl)ccc1Nc1ccnc2cc(I)ccc12 [UNC10225189A]
Result string: 9.39

Query string: // TFE3 % lookup, key: CN(C(=O)c1ccc(-c2cc(-c3c[nH]nc3-c3ccccn3)ccn2)cc1)C1CCOCC1 [UNC10225473A]
Result string: 13.07

Query string: // TFE3 % lookup, key: CN1CCN(CCCNc2nccc(-c3c(-c4ccc(F)cc4)nn4cc(C(F)(F)F)ccc34)n2)CC1 [UNC10225376A]
Result string: 16.03

Query string: // TFE3 % lookup, key: COc1cc(Nc2nccc(N3CCC(NC(=O)c4cccc(NC(C)=O)c4)C3)n2)cc(OC)c1OC (stereo not drawn) [GSK1379754]
Result string: 7.67

Query string: // TFE3 % lookup, key: Cl.Cl.NCC(NC(=O)c1cc(-c2cccnc2)c(-c2ccnc3[nH]ccc23)s1)c1ccccc1 (stereo not drawn) [UNC10225315A]
Result string: 8.64

Query string: // TFE3 % lookup, key: Cn1cc(-c2ccc3c(c2)CCN3C(=O)Cc2cccc(C(F)(F)F)c2)c2c(N)ncnc21 [UNC10225165A]
Result string: 14.20

Query string: // TFE3 % lookup, key: Cc1ccccc1-c1cc(-c2c[nH]nc2-c2ccccn2)ccn1 [UNC10225243A]
Result string: 14.74

Query string: // TFE3 % lookup, key: O=c1cc(N2CCOCC2)nc2n(Cc3cccc4ccccc34)ccn12 [UNC10225439A]
Result string: 9.76

Query string: // TFE3 % lookup, key: Cc1ccc(NC(=O)c2cccc(N3CCCCC3)c2)cc1-c1ccc(C(=O)NCC2CC2)cc1 [UNC10225021A]
Result string: 7.57

Query string: // TFE3 % lookup, key: CCCCc1nn2ncccc2c1-c1ccnc(NC2CC2)n1 [UNC10225247A]
Result string: 6.63

Query string: // TFE3 % lookup, key: Cl.c1ccc(Cn2ncc3cc(Nc4ncnc5ccccc45)ccc32)cc1 [UNC10225085A]
Result string: 11.00

Query string: // TFE3 % lookup, key: Cc1ccc(NC(=O)c2ccc(Cl)cc2)cc1-c1ccc(C(=O)Nc2ccncc2)cc1 [UNC10224985A]
Result string: 13.44

Query string: // TFE3 % lookup, key: Cc1ccc(NC(=O)c2ccnc(N3CCCCC3)c2)cc1-c1ccc(C(=O)NCC2CC2)cc1 [UNC10225036A]
Result string: 6.82

Query string: // TFE3 % lookup, key: COc1ccc(C)c(Nc2ccnc(Nc3ccc(-c4cnc[nH]4)cc3)n2)c1 [GW784041]
Result string: 11.03

Query string: // TFE3 % lookup, key: CC(C)Nc1cc(-c2ccc3c(N)n[nH]c3c2)nc(N)n1 [GSK2221681]
Result string: 7.71

Query string: // TFE3 % lookup, key: CNC(=O)c1ccccc1Nc1nc(Nc2ccc(N3CCOCC3)cc2)ncc1Cl [GSK1576028]
Result string: 5.85

Query string: // TFE3 % lookup, key: Cc1cccc(-c2nc(Nc3ccncc3)c3sccc3n2)n1 [GW869641]
Result string: 6.93

Query string: // TFE3 % lookup, key: Cc1cccc(Nc2nc(NCCN)ncc2C(N)=O)c1 [UNC10225029A]
Result string: 9.09

Query string: // TFE3 % lookup, key: c1ccc(Oc2ccc(Nc3ccnc4cc(-c5ccc(CNCCN6CCOCC6)o5)ccc34)cc2)nc1 [UNC10225054A]
Result string: 33.41

Query string: // TFE3 % lookup, key: CN(c1ccc(NC(=O)Nc2cc(C(F)(F)F)ccc2F)cc1)c1ccnc(Nc2ccc(S(N)(=O)=O)cc2)n1 [GW809893]
Result string: 18.55

Query string: // TFE3 % lookup, key: Cn1cc(-c2ccc3c(c2)CCN3C(=O)Cc2cccc(Cl)c2)c2c(N)ncnc21 [UNC10225039A]
Result string: 17.54

Query string: // TFE3 % lookup, key: COc1ccc2cc(-c3nc(-c4ccccc4C(C)C)[nH]c3-c3ccncc3)ccc2c1 [UNC10225291A]
Result string: 9.24

Query string: // TFE3 % lookup, key: CS(=O)(=O)CCNCc1nc(-c2ccc3ncnc(Nc4ccc(OCc5ccccc5)c(Cl)c4)c3c2)cs1.Cl [UNC10225279B]
Result string: 17.30

Query string: // TFE3 % lookup, key: C[C@@H](Oc1cc(-n2cnc3ccc(NC(=O)NC(C)(C)C)cc32)sc1C(N)=O)c1ccccc1Cl [UNC10225287A]
Result string: 9.35

Query string: // TFE3 % lookup, key: COc1cc(Nc2nccc(N3CCC(NC(=O)c4cc5ccccc5s4)C3)n2)cc(OC)c1OC (stereo not drawn) [GSK1379760]
Result string: 8.33

Query string: // TFE3 % lookup, key: CC(C)c1nc(-c2ccc(F)c(NS(=O)(=O)c3c(F)cccc3F)c2)c(-c2ccnc(Nc3ccc(N4CCOCC4)nc3)n2)s1 [UNC10225089A]
Result string: 14.74

Query string: // TFE3 % lookup, key: COc1cc(Nc2nccc(-c3c(-c4cccc(NC(=O)c5c(F)cccc5F)c4)nn4ccccc34)n2)cc(OC)c1OC [UNC10225318A]
Result string: 5.80

Query string: // TFE3 % lookup, key: c1ccc(-c2cc(-c3c[nH]nc3-c3ccccn3)ccn2)cc1 [UNC10225169A]
Result string: 6.57

Query string: // TFE3 % lookup, key: Cc1nn2c(=O)cc(N3CCO[C@H](C)C3)nc2n1Cc1cccc(Cl)c1Cl [UNC10225190A]
Result string: 6.51

Query string: // TFE3 % lookup, key: CC(C)c1nc(-c2cccc(NS(=O)(=O)c3c(F)cccc3F)c2F)c(-c2ccnc(Nc3ccc(N4CCOCC4)nc3)n2)s1 [UNC10224991A]
Result string: 13.92

Query string: // TFE3 % lookup, key: NCC(NC(=O)c1cc(-c2cn[nH]c2)c(-c2ccnc3[nH]ccc23)s1)c1ccccc1.O=C(O)C(F)(F)F.O=C(O)C(F)(F)F (stereo not drawn) [UNC10225196A]
Result string: 18.18

* * *

# Test system: SH-SY5Y cells
# protocol.description: Nuclear count from microscopy images (cellular growth and toxicity); further: reference of the scale not given here
# measurement.context: PKIS2 primary screening
Give measured Nuclear Count for each item. Keep answers brief.
Please reply with the value in numeric form only.

Query string: // Nuclear Count lookup, key: COc1ccc(Nc2nccc(N3CCC(NC(=O)Nc4ccc5c(c4)OCO5)C3)n2)cc1 (stereo not drawn)
Result string: 86.22

Query string: // Nuclear Count lookup, key: Cc1cc(-c2ccc3c(c2)CC[C@@H](N[C@@H](C)c2ccccc2)C3)cnc1N
Result string: 101.83

Query string: // Nuclear Count lookup, key: FC(F)(F)c1ccc(-c2ncn(CCCN3CCOCC3)c2-c2ccncc2)cc1 [UNC10225425A]
Result string: 88.34

Query string: // Nuclear Count lookup, key: Cc1ccc(-c2cc(-c3c[nH]nc3-c3ccccn3)ccn2)cc1 [UNC10225125A]
Result string: 147.86

Query string: // Nuclear Count lookup, key: Cl.c1ccc(-c2n[nH]cc2-c2ccnc(-c3ccc(CN4CCOCC4)cc3)c2)nc1 [UNC10225251A]
Result string: 93.63

Query string: // Nuclear Count lookup, key: COc1cc2nccc(Nc3ccc(OCc4ccc(NC(C)=O)cc4)cc3)c2cc1OC.Cl [UNC10225233A]
Result string: 125.55

Query string: // Nuclear Count lookup, key: Clc1cccc(-c2nc(Nc3ccncc3)c3ccccc3n2)c1
Result string: 66.61

Query string: // Nuclear Count lookup, key: Cc1ccc(C)c(NC(=O)NCCNc2ccnc(Nc3ccc(F)cc3)n2)c1
Result string: 85.48

Query string: // Nuclear Count lookup, key: Fc1cc(Cl)ccc1Nc1ccnc2cc(I)ccc12 [UNC10225189A]
Result string: 145.49

* * *

# Tested on: SH-SY5Y cells
# measurement.context: PKIS2 primary screening, DQ Red BSA spot count
Parameter threshold = 100. Response is True when DQ Spot meets or exceeds it, else False.

Query string: Kindly determine if DQ Spot recorded for Fc1ccc(-c2ncn(CCCN3CCOCC3)c2-c2ccccn2)cc1 [UNC10225382A] is above or exactly 100.
Result string: True

Query string: Kindly determine if DQ Spot recorded for Fc1ccc(-c2nc[nH]c2-c2ccncc2)cc1 [UNC10225418A] is above or exactly 100.
Result string: True

Query string: Kindly determine if DQ Spot recorded for CC(C)NCC(Cc1ccccc1)NC(=O)c1cc(Br)c(-c2ccnc3[nH]ccc23)s1.Cl.Cl (stereo not shown) [UNC10225078A] is above or exactly 100.
Result string: False

Query string: Kindly determine if DQ Spot recorded for Cl.Cl.NC(CNC(=O)c1cc(Br)c(-c2ccnc3[nH]ccc23)s1)c1ccccc1 (stereo not shown) [UNC10225176A] is above or exactly 100.
Result string: False

Query string: Kindly determine if DQ Spot recorded for Cc1cc(NCC(c2ccccc2)c2ccccc2)nc(NCc2ccc(C(F)(F)F)cc2)n1 [GW497681] is above or exactly 100.
Result string: False

Query string: Kindly determine if DQ Spot recorded for Cc1cc(Nc2nc(-c3cccc(C)n3)nc3ccccc23)ccn1 [GW872411] is above or exactly 100.
Result string: True

Query string: Kindly determine if DQ Spot recorded for CN(c1ccc2c(c1)nc(NCc1ccccc1)n2C)c1ccnc(Nc2ccc(CS(C)(=O)=O)cc2)n1 [GW811603] is above or exactly 100.
Result string: True

Query string: Kindly determine if DQ Spot recorded for Fc1ccc(-c2nc3n(c2-c2ccncc2)CCS3)cc1 [UNC10225163A] is above or exactly 100.
Result string: True

Query string: Kindly determine if DQ Spot recorded for CN(C)Cc1ccc(-c2ccc3c(Nc4ccc(Oc5ccccn5)cc4)ccnc3c2)o1 [UNC10225428A] is above or exactly 100.
Result string: False

Query string: Kindly determine if DQ Spot recorded for O=C(Nc1n[nH]c2cc(-c3ccccc3F)ccc12)C1CC1 [SB-733371] is above or exactly 100.
Result string: True

Query string: Kindly determine if DQ Spot recorded for Cc1cccc(-c2cc(Nc3ccncc3)c3ccccc3n2)n1 [GSK223675] is above or exactly 100.
Result string: True

Query string: Kindly determine if DQ Spot recorded for Cn1cncc1-c1cc2c(Nc3ccc(OCc4ccccc4)cc3)ncnc2cn1 [UNC10225035A] is above or exactly 100.
Result string: True

Query string: Kindly determine if DQ Spot recorded for COc1cc(Nc2nccc(N3CCC(NC(=O)C(C)c4ccc(Cl)cc4)C3)n2)cc(OC)c1OC (stereo not shown) [GSK1379757] is above or exactly 100.
Result string: False

Query string: Kindly determine if DQ Spot recorded for CC(C)(CN)c1nc(-c2ccc(Cl)c(O)c2)c(-c2ccncc2)[nH]1.O=C(O)C(F)(F)F [UNC10225206B] is above or exactly 100.
Result string: True

Query string: Kindly determine if DQ Spot recorded for COC(=O)c1cccc(NC(=O)NC2CCN(c3ccnc(Nc4ccc(F)cc4)n3)C2)c1 (stereo not shown) [GSK1379725] is above or exactly 100.
Result string: False

Query string: Kindly determine if DQ Spot recorded for Fc1cc(Cl)ccc1Nc1ccnc2cc(I)ccc12 [UNC10225189A] is above or exactly 100.
Result string: False

Query string: Kindly determine if DQ Spot recorded for COc1cc2ncnc(Nc3ccc4nc(-c5ccccc5)[nH]c4c3)c2cc1OC.Cl [UNC10225504A] is above or exactly 100.
Result string: True

Query string: Kindly determine if DQ Spot recorded for CN(c1ccc(NC(=O)Nc2cc(C(F)(F)F)ccc2F)cc1)c1ccnc(Nc2ccc(S(N)(=O)=O)cc2)n1 [GW809893] is above or exactly 100.
Result string: False

Query string: Kindly determine if DQ Spot recorded for COc1ccc(-c2oc3ncnc(N)c3c2-c2ccc(OC)cc2)cc1 [UNC10225431A] is above or exactly 100.
Result string: True

Query string: Kindly determine if DQ Spot recorded for COc1ccc(Nc2nccc(-c3ccc(NC(=O)c4cc5cc(F)ccc5[nH]4)cc3)n2)cc1 [GSK1229496] is above or exactly 100.
Result string: False

Query string: Kindly determine if DQ Spot recorded for Nc1ncc(-c2cn[nH]c2)c2scc(-c3ccc4c(c3)CCN4C(=O)Cc3ccccc3)c12 [UNC10225500A] is above or exactly 100.
Result string: False

Query string: Kindly determine if DQ Spot recorded for Cc1ccn2nc(-c3ccc(F)cc3)c(-c3ccncc3)c2c1.Cl [UNC10224989A] is above or exactly 100.
Result string: True

Query string: Kindly determine if DQ Spot recorded for Cc1ccc2c(-c3ccncc3)c(-c3ccc(F)cc3)nn2c1.Cl [UNC10225321A] is above or exactly 100.
Result string: False

Query string: Kindly determine if DQ Spot recorded for COC(=O)Nc1nc2ccc(Oc3ccc(NC(=O)Nc4cc(C(F)(F)F)ccc4F)cn3)cc2[nH]1 [GW681170] is above or exactly 100.
Result string: True

Query string: Kindly determine if DQ Spot recorded for Nc1nc(-c2ccc3c(N)n[nH]c3c2)cc(N2CCCC2)n1 [GSK2227430] is above or exactly 100.
Result string: True

Query string: Kindly determine if DQ Spot recorded for O=C(Nc1ccc2c(c1)OCO2)NC1CCN(c2ccnc(NCc3ccc(F)cc3)n2)CC1 [GSK1379859] is above or exactly 100.
Result string: False

Query string: Kindly determine if DQ Spot recorded for O=S(=O)(c1ccc(-c2ccnc3[nH]ccc23)cc1)N1CCCC1 [UNC10225462A] is above or exactly 100.
Result string: False

Query string: Kindly determine if DQ Spot recorded for Nc1nc(-c2ccc3c(N)n[nH]c3c2)cc(N2CCC[C@@H](C(=O)Nc3ccccc3)C2)n1 [GSK2288359] is above or exactly 100.
Result string: True

Query string: Kindly determine if DQ Spot recorded for O=C(Nc1ccc(Oc2ccc3nc(NC(=O)c4ccco4)[nH]c3c2)cc1)Nc1cc(C(F)(F)F)ccc1F [GW683134] is above or exactly 100.
Result string: False

Query string: Kindly determine if DQ Spot recorded for COc1ccc(Nc2nccc(N3CCC(NC(=O)c4cccc(NC(C)=O)c4)C3)n2)cc1 (stereo not shown) [GSK1379732] is above or exactly 100.
Result string: True
